Could you please report measured combination Emax for the items listed next?
System: K5 (Thyroid Gland Carcinoma)
PROCEDURE_TEXT: combination Emax (second highest fraction inhibited in the dose matrix, 72 h); higher = more inhibition; extreme values may be limits of the assay
Enter the number alone.

Reported combination Emax of Cc1c2c(nn1C)CSCc1cc(n(C)n1)CSc1cc(c3ccccc3c1)OCCCc1c(C(=O)O)n(C)c3c-2c(Cl)ccc13 [AZD5991] + CN(C)CCCOc1ccc(-c2ccc3ncc4c(c3c2)n(C2CCOCC2)c(=O)n4C)cn1 [AZD0156] (first compound max 1 µM, 7x7, partner max 1 µM) : 0.183

Form field combination Emax, entry CN(CCO)CC[C@H](CSc1ccccc1)Nc1ccc(S(=O)(=O)NC(=O)c2ccc(N3CCC([C@@H](O)c4ccccc4-c4ccc(Cl)cc4)CC3)cc2)cc1S(=O)(=O)C(F)(F)F [AZD4320] + Cn1cnc2c(F)c(Nc3ccc(Br)cc3Cl)c(C(=O)NOCCO)cc21 [Selumetinib] (first compound max 1 µM, 7x7, partner max 3 µM) : 0.679

---

Tested on: SW1116 (Colorectal Carcinoma)
PROCEDURE_TEXT: combination Emax (second highest fraction inhibited in the dose matrix, 72 h); higher = more inhibition; extreme values may be limits of the assay
READOUT_KIND: combination Emax
Form: value (number only, do not type unit).

Per the record, C[C@@H]1COCCN1c1cc(C2([S@](C)(=N)=O)CC2)nc(-c2ccnc3[nH]ccc23)n1 [AZD6738] + C1CC(C1)(C(=O)[O-])C(=O)[O-].N.N.[Pt+2] [Carboplatin] (first compound max 10 µM, 7x7, partner max 10 µM) has combination Emax of 0.247

Form: compound = O=C(c1cc(Cc2n[nH]c(=O)c3ccccc23)ccc1F)N1CCN(C(=O)C2CC2)CC1 [Olaparib] + Cc1c2c(nn1C)CSCc1cc(n(C)n1)CSc1cc(c3ccccc3c1)OCCCc1c(C(=O)O)n(C)c3c-2c(Cl)ccc13 [AZD5991] (first compound max 10 µM, 7x7, partner max 1 µM) ; combination Emax = 0.0456

combination Emax recorded for this compound, COc1cccc(OCCCN)c1-c1cc(Nc2cnc(C#N)cn2)n[nH]1 [Prexasertib] + O=C(c1cc(Cc2n[nH]c(=O)c3ccccc23)ccc1F)N1CCN(C(=O)C2CC2)CC1 [Olaparib] (first compound max 1 µM, 7x7, partner max 10 µM) , is 0.565

Form field combination Emax, entry COc1nnc2ccc(N3CCC(c4ccc(OCCN5CCN(C)C(=O)[C@H]5C)cc4)CC3)nn12 [AZD5153] + CC1(C)CCC(CN2CCN(c3ccc(C(=O)NS(=O)(=O)c4ccc(NCC5CCOCC5)c([N+](=O)[O-])c4)c(Oc4cnc5[nH]ccc5c4)c3)CC2)=C(c2ccc(Cl)cc2)C1 [Venetoclax] (first compound max 1 µM, 7x7, partner max 1 µM) : 0.353

combination Emax reported for this compound COc1nnc2ccc(N3CCC(c4ccc(OCCN5CCN(C)C(=O)[C@H]5C)cc4)CC3)nn12 [AZD5153] + C[C@@H]1COCCN1C2=NC(=NC(=C2)C3(CC3)[S@](=N)(=O)C)C4=C5C=CNC5=NC=C4 [AZD6738] (first compound max 1 µM, 7x7, partner max 10 µM) : 0.432

Memo: O=C(c1cc(Cc2n[nH]c(=O)c3ccccc23)ccc1F)N1CCN(C(=O)C2CC2)CC1 [Olaparib] + CC1(C)CCC(CN2CCN(c3ccc(C(=O)NS(=O)(=O)c4ccc(NCC5CCOCC5)c([N+](=O)[O-])c4)c(Oc4cnc5[nH]ccc5c4)c3)CC2)=C(c2ccc(Cl)cc2)C1 [Venetoclax] (first compound max 10 µM, 7x7, partner max 1 µM) , reported combination Emax: 0.097

What the record says about CN(CCO)CC[C@H](CSc1ccccc1)Nc1ccc(S(=O)(=O)NC(=O)c2ccc(N3CCC([C@@H](O)c4ccccc4-c4ccc(Cl)cc4)CC3)cc2)cc1S(=O)(=O)C(F)(F)F [AZD4320] + C[C@@H](Nc1cc(F)cc(F)c1)c1cc(C(=O)N(C)C)cc2c(=O)cc(N3CCOCC3)oc12 [AZD8186] (first compound max 1 µM, 7x7, partner max 3 µM) : combination Emax is 0.275

Item: Cc1c2c(nn1C)CSCc1cc(n(C)n1)CSc1cc(c3ccccc3c1)OCCCc1c(C(=O)O)n(C)c3c-2c(Cl)ccc13 [AZD5991] + Cc1cc2ncnn2cc1Nc1ncc2c(n1)n(C1CCOCC1)c(=O)n2C [AZD7648] (first compound max 1 µM, 7x7, partner max 10 µM) | combination Emax: 0.168
